Provenance of the data: patent US20090325959A1

# ASSAY_TARGET: Akt3 human enzyme (Homo sapiens)
# Construct: purchased Upstate Chemicon 14-502
# Sequence (Q9Y243 whole entry): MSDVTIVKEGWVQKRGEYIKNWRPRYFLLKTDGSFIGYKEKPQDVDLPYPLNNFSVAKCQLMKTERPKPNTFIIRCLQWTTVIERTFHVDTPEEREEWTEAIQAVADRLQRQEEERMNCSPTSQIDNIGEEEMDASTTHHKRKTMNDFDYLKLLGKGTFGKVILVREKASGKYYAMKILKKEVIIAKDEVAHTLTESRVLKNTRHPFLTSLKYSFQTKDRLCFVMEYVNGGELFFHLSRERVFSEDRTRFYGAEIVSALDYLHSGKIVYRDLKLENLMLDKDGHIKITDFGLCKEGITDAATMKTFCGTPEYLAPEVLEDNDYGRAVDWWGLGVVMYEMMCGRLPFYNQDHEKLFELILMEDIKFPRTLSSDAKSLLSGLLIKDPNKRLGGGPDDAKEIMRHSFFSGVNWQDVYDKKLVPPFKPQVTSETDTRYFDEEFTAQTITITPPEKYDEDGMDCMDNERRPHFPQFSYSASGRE
# ASSAY_SUMMARY: Akt3 inhibition assay (IMAP FP);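 note: kinase reaction run 60 min at room temperature after 30 µM ATP start, phosphorylated substrate captured on IMAP beads and read as fluorescence polarization (mP)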
# Format: biochemical
# EXPERIMENTAL_CONDITIONS: average Ki; read-out: Akt3 Ki
Flag rule - Ki less than 3 µM flags true (1); the remaining entries get false (0).

Example entries and their recorded answers appear below.
CCc1ccc(CN2CCC[C@@H](Nc3ccc4[nH]ncc4c3)C2)cc1 [Compound 1.136]	true (1)
C#Cc1cccc(CN2CCC[C@H](Nc3ccc4[nH]ncc4c3)C2)c1 [Compound 1.153]	false (0)
Cc1ccc(CN2CCC[C@@H](Nc3ccc4[nH]ncc4c3)C2)cc1O [Compound 1.173]	true (1)
CCS(=O)(=O)Nc1cccc(CN2CC[C@@H](Nc3cccc4cnccc34)C2)c1 [Compound 2.041]	false (0)
c1cc2ccc(CN3CCC[C@H](Nc4ccc5[nH]ncc5c4)C3)cc2[nH]1 [Compound 1.148]	true (1)

From here, focus on the item given below.
Exercise: For this molecule, is Ki lower than 3 µM? c1cc(N[C@@H]2CCN(Cc3ccc4occc4c3)C2)c2ccncc2c1 [Compound 2.055]
Key: true (1)
